The measured values listed here are drawn from the supplement of paper PMC10567573.

# protein stability index per record follows
B1: RSPH3 (parent)
chain: VDVQTELYLEEIADRIIEVDMECQ

variants of: B1; experiment: protein stability index of a GFP-peptide fusion (GPS, HEK-293T) (PSI 1-6); higher = more stable; settings: c terminus: a fixed tail appended;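 also: lentivirally expressed fusions sorted by FACS into six bins by GFP to DsRed ratio, PSI derived from sequencing read proportions per bin multiplied by bin number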
property_label: protein stability index

mutation_spec | property_label | observed
E22H | protein stability index | 2.06
I17T | protein stability index | 3.6
D20L | protein stability index | 4.62
A13V | protein stability index | 2.17
D20H | protein stability index | 2.46
E6S | protein stability index | 2.39
V3E | protein stability index | 2.66
L7W | protein stability index | 2.04
E18Y | protein stability index | 2.03
C23E | protein stability index | 4.22
I12L | protein stability index | 1.72
E10T | protein stability index | 1.86
Q24K | protein stability index | 2.12
M21K | protein stability index | 2.27
C23S | protein stability index | 3.85
D14S | protein stability index | 2.08
E11K | protein stability index | 2.85
M21P | protein stability index | 4.45
I17P | protein stability index | 4.26
E11F | protein stability index | 1.89
E18S | protein stability index | 2.44
M21I | protein stability index | 1.91
D20P | protein stability index | 3.46
E22V | protein stability index | 1.57
Q24E | protein stability index | 2.31
E6Q | protein stability index | 2.14
V19R | protein stability index | 4.23
